test system: Plasmodium falciparum; assay: GSK_TCMDC: Inhibition of Plasmodium falciparum 3D7 in whole erythrocytes, using parasite LDH activity as an index of growth.; format: functional, organism-based; conditions: Plasmodium falciparum, 3D7
Rule: XC50 below 800 nM gives true. Equal to or above 800 nM gives false.

// below: answered compounds
1) O=C(Nc1ccc(Cl)cc1Cl)N[C@H]1CCN(CCCCCNC(=O)C2CC2c2ccc(Cl)c(Cl)c2)C1 (stereo not given in full) : false
2) CS(=O)(=O)c1ccc(CNCc2ccc(-c3cccc(-c4nc5ccccc5[nH]4)c3)cc2)cc1 : true

Prompt line: Consider the compound CCOc1ccc2nc3cc(N)ccc3c(N)c2c1 . Is its XC50 strictly less than 800 nM?
Response line: true

Reference source: ChEMBL document CHEMBL1157539
